Target: biotinylated HCV core peptide 134-154 (Peptide 1) (HCV-1)
Test: EIA, captured mAb
Quick rule for you: Reactivity (OD492) under 0.2 OD gets satisfied, anything else gets not satisfied.

# Binder, Class Assignment
records = [
    ("HCV 208A-210 (antibody, V domains shown) VH: QVQLQQSGPELVKPGASMRISCKASGYTFTSYYVHWIKQRPGQGLEWIGCIYPGDVNTDYNEKFKGKATLTADKSSSTAYMQVSTLTSEDSAIYFCVLYYYGSFAYWGQGTLVTVSA VL: EIVLTQSPAITAASLGQNVTITCRASSSVSYMHWYRQKSGTSPQLWIYEISRRASGVPARFRASGSGTSYSLTISSMEAEDAAIYYCQQWNYPLTFGAGTKLEVKR", "satisfied"),
    ("HCV 208B-862 (antibody) chain 1: DVQLQESGPGLVKPSQSLSLTCTVTGYSITSDYAWNWIRQFPGNKLEWMGYISYSGTTVYSPSLKSRISITRDTSKNQFFLQLNSVTIEDSATYYCGGNYWGQGTLVTVSA chain 2: DVVLTQTPLSLPLSLGDQASISCRSSQTLLHSDGDTYLHWYLQKPGQSPKLLIYKLSNRFSGVPDRFSGSGSGTDFTLKISRVEAEDLGVYFCSQSTHVPYTFGGGTKLEIKR", "not satisfied"),
    ("HCV 208B-471 (antibody, V domains shown) VH: QGQLQQSGPVLVKPGASEILYCKTSGFTFSSTYISWLKQKPGQSLEWIAWIYAGTGATNYNQKFTGKAQLTVDASSNTAYMHFSGLTPEDSAIYYCAISGAGVYWGQGTLVTVSA VL: DVVMTQTPLSLPVSLGDQASISCRSSQSLLHSNGNTYLEWYLQKPGQSPNLLIYNVSNRFSGVPDRFSGSGSGTDFALKISRVGAEDLGVYYCFQGSHVPLTFGAGTKLELKR", "not satisfied"),
    ("HCV 208B-515 (antibody, V domains shown) VH: QVQLQQPGAELVKPGASLKLSCRASGYTFTSYWIHWVKQRPGQGLEWIGEIDPSDSYTNYNQKFKGKATLTVDKSSRAAYMQLSSLTSEDSAVYYCARHYYGVFDSWGQGTKLTVSS VL: QIVFTQYPAIMSASLGERVTMTCTASSSVTSSYLHWFQQKPGSSPKLWIYSTSNPGSGVPARFSGRGSGTSYSLSISSMEAEDAATYYCLQFHRSPWTFGGGTKLEIRR", "not satisfied"),
    ("HCV 208B-178 (antibody, V domains shown) VH: DVKLVESGGGLVKLGGSLKLSCAASGFTFSSYYMSWVRQTPEKRLELVAAINSNGGSTYYPDTVKGRFTISRDNAKNTLYLQMSSLKSEDTALYYCARHGGLGRRDWYFDVWGAGTTVTVSS VL: DIVLTQSPASLAVSLGQRATISCRASESVDNYGISFMHWYQQKPGQPPKLLIYRASNLESGIPARFSGSGSRTDFTLTINPVETDDVATYYCQQSNKDPFTFGSGAKLEIKR", "satisfied"),
    ("HCV 208B-1024 (antibody, V domains shown) VH: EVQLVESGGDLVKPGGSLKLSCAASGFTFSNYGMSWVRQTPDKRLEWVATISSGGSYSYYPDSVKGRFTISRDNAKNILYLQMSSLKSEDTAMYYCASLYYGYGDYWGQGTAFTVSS VL: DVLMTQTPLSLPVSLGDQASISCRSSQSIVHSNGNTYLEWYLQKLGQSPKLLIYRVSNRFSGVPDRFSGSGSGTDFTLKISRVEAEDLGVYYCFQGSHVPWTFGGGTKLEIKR", "satisfied"),
    ("HCV 208A-983 (antibody, V domains shown) VH: QGQMQQSGAELVKPGASVKLSCKTSGFTFSSSYFSWLKQKPGQSLEWIAWIYAGTGNTIYNQKFTDKAQLTVDTASSTAFMQLSSLTIEDSAIYYCAISGTGFTYWGQGTLVTVSA VL: DVLMTQTPLSLPVNLGDQASISCRSSQSLLHSNGNTYLEWFLQKPGQSPKLLIYNVSNRFSGVPDRFSGSGSGTDFTLKISRVEAEDLGVYYCFQGSHVPFTFGSGTKLAIKR", "not satisfied"),
    ("HCV 208A-638 (antibody, V domains shown) VH: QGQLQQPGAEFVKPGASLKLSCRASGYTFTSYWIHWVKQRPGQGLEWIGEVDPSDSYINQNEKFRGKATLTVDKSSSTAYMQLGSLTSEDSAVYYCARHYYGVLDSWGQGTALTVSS VL: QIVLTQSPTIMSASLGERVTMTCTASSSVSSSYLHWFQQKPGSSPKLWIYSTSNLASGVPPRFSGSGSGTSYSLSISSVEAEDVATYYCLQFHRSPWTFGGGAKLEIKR", "satisfied"),
    ("HCV 208A-874 (antibody, V domains shown) VH: QVQLQQPGAELVKPGASVKLSCKASGYTLSSYWMHWVKQRPGQGLEWIGEIHPSDSYTSYNQKFKDKATLTVDKSSSTAYMQLSSLTSEDSAVYYCARGGYYRYDEFAYWGQGTLVTVSA VL: DIVMTQSHKFMSTSIGDRVSITCKASQNVSPAVAWYQQKPGQSPKLLIYSASSRYTGVPDRFTGSGSGTAFTFTISSVQAEDLAVYFCQQHFSTPWTFGGGTMLEIKR", "satisfied"),
    ("HCV 208B-556 (antibody, V domains shown) VH: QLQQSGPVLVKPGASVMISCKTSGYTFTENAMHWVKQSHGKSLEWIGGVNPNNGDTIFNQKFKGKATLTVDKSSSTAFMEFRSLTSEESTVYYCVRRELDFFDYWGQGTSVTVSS VL: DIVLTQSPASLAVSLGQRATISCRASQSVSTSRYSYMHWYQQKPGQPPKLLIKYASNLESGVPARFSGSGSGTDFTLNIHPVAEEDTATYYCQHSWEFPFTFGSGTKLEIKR", "satisfied"),
]
